- target.or.test.system: T1, RFS1 K56A (Walker A);RIP1 (cShu subunit);SWS1 (cShu subunit) (Caenorhabditis elegans;Caenorhabditis …, UniProt P34348;Q21621;Q8MYM5 1-245;1-209;1-191, K56A||)
- T1 sequence 1: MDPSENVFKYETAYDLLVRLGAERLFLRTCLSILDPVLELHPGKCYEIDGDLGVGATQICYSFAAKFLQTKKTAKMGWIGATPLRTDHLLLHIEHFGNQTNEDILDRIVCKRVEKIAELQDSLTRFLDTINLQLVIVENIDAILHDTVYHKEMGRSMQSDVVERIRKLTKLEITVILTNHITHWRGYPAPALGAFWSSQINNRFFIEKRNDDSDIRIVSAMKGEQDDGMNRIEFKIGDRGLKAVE
- T1 sequence 2: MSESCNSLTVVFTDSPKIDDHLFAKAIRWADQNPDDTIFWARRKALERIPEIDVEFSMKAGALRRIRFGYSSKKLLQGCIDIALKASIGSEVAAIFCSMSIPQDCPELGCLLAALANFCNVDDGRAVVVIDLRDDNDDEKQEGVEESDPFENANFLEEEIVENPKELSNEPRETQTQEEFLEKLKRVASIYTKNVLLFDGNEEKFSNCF
- T1 sequence 3: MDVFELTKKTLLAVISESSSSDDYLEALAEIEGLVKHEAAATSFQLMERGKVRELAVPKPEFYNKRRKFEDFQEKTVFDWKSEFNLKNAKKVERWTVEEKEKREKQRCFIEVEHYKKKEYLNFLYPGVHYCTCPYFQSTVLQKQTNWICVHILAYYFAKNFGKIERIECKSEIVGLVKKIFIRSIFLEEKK
- experiment: fluorescence polarization
Give measured Kd for each item. Keep answers brief.
Write the number in µM without appending the unit.

In plain terms, TTTTTTTTTTTTTTTTTTTTCTTGACAAGCTTGCGCACT (ssDNA) [ss39] has a documented Kd of 3.3

Measured Kd of Fork (20 nt) (mixed) DNA 1: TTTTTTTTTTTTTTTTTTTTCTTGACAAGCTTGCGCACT DNA 2: AGTGCGCAAGCTTGTCAAGGCACTTTTTTTTTTTTTTTT : 2.5

Kd measured on 5'-overhang (20 nt) (mixed) DNA 1: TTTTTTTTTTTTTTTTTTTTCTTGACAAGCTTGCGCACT DNA 2: AGTGCGCAAGCTTGTCAAG = 4.5
